molecular target: E. coli ADC (Escherichia coli, UniProt P21170); construct: The kinetic parameters determined for the partially purified biosynthetic ADC from E. coli; endogenous in cells; host or cells: E. coli DH5α (39-53% ammonium sulphate fraction of the lysate, desalted); test: E. coli ADC activity assay (HPLC of agmatine); assay type: biochemical; conditions: 0.1 mM PLP; 15 min preincubation; 0.15 mM L-Arg
Sequence (P21170 whole entry): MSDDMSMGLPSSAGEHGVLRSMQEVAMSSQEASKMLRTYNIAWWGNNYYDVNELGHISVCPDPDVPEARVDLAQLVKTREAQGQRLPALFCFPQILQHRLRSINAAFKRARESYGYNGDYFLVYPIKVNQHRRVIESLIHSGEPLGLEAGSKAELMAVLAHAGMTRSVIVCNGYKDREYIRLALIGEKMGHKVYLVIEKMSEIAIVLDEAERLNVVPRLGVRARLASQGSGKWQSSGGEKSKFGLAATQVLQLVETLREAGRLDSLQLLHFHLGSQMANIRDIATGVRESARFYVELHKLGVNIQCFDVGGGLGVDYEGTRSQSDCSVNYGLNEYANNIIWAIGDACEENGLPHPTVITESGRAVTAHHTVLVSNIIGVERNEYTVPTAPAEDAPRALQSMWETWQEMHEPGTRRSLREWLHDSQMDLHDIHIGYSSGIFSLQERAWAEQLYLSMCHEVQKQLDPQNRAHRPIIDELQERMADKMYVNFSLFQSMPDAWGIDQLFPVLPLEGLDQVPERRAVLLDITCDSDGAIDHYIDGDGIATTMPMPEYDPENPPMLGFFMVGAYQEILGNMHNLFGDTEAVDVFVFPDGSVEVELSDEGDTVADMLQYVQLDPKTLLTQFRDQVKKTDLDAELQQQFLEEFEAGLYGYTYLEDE
Assay readout: pIC50
pIC50 is defined as minus the log10 of a concentration measured in mol/L.

Some solved cases for reference:
Molecule: N=C(N)NCCCON
Recorded measurement: 7.52
--
Molecule: NCCCON
Recorded measurement: 4.48

Please turn your attention to the following entry.
Lookup: pIC50 for N=C(N)NCCCC(N)(C(=O)O)C(F)F (racemic) ?
Found: 5.00
